species: Homo sapiens; assay: Selectivity index, ratio of KB for DP1 receptor (unknown origin) to KB for EP2 receptor (unknown origin)
measured.property: Ratio

>>> numeric_result("Cc1cc2ccccc2n1CCNC(=O)c1ccc(N2CCCCCC2)cc1")
342
>>> numeric_result("Cc1cc2ccccc2n1CCNC(=O)c1ccc2c(c1)n(C)c(=O)n2C")
300

###

test: Metabolic stability of the compound in mouse liver microsomes assessed as compound remaining at 10 uM after 30 mins; format: ADME; conditions: read-out: Stability
measured.property: remaining at 0.5 h, 10 µM (%)

>>> numeric_result("Cc1cc2ccccc2n1CCNC(=O)c1ccc(N2CCOCC2)cc1")
5
>>> numeric_result("Cc1[nH]c2ccccc2c1CCNC(=O)c1ccc(N(C)C)cc1")
0
>>> numeric_result("Cc1[nH]c2ccccc2c1CCNC(=O)c1ccc(N2CCOCC2)cc1")
10
>>> numeric_result("Cc1cc2ccccc2n1CCNC(=O)c1ccc(N2CCC(C(=O)O)CC2)cc1")
92

(1) Cc1cc2ccccc2n1CCNC(=O)c1ccc(N2CCCCCC2)cc1
(2) Cc1cc2ccccc2n1CCNC(=O)c1cnc(Nc2ccccc2)nc1
[ask] Just curious, which one has the larger remaining at 0.5 h, 10 µM reading, 1 or 2 ? Please reply using the label of the selected record.
[reply] 2

(A) Cc1cc2ccccc2n1CCNC(=O)c1ccc(N2CCCC2)cc1
(B) Cc1cc2ccccc2n1CCNC(=O)c1ccc(-c2nnn[nH]2)cc1
[ask] Between the two listed entries A and B , which has its remaining at 0.5 h, 10 µM at the higher number? Answer by quoting the chosen item's label.
[reply] B

###

target: Prostaglandin E2 receptor EP4 subtype (Homo sapiens); assay: Antagonist activity at EP4 receptor (unknown origin) expressed in rat C6 cells assessed as inhibition of PGE2-induced response; type: cell-based
measured.property: Kb (µM)

Example cases with answers are listed next.
>>> numeric_result("Cc1cc2ccccc2n1CCNC(=O)c1ccc(N2CCOCC2)cc1")
21
>>> numeric_result("CCN(CC)c1ccc(C(=O)NCCn2c(C)cc3ccccc32)cc1")
31.3
>>> numeric_result("Cc1cc2ccccc2n1CCNC(=O)c1ccc(N(C)C)cc1")
51

(1) Cc1[nH]c2ccccc2c1CCNC(=O)c1ccc(N(C)C)cc1
(2) Cc1[nH]c2ccccc2c1CCNC(=O)c1ccc(N2CCOCC2)cc1
[ask] Of 1 and 2 , which shows the smaller Kb value? Give the chosen item's label as your response.
[reply] 1
(1: 16.4 µM, 2: 75.6 µM)

###

experiment: Metabolic stability of the compound in mouse liver microsomes assessed as compound remaining at 10 uM after 15 mins; assay type: ADME; conditions: read-out: Stability
measured.property: remaining at […], 10 µM (%)

>>> numeric_result("Cc1cc2ccccc2n1CCNC(=O)c1ccc(-n2cnnn2)cc1")
50

(I) Cc1[nH]c2ccccc2c1CCNC(=O)c1ccc(N2CCOCC2)cc1
(II) Cc1cc2ccccc2n1CCNC(=O)c1cnc(Nc2ccccc2)nc1
[ask] // compare measured remaining at […], 10 µM between I and II ; output the lower one Pick one and reply with its label.
[reply] I
(I: 37%, II: 71%)

###

remaining at […], 10 µM values by entry
assay: Metabolic stability of the compound in mouse liver microsomes assessed as compound remaining at 10 uM after 15 mins; assay type: ADME; conditions: read-out: Stability

[ask] Please give the measured remaining at […], 10 µM for this compound: CCN(CC)c1ccc(C(=O)NCCn2c(C)cc3ccccc32)cc1
[reply] < 14%

[ask] // query: Cc1cc2ccccc2n1CCNC(=O)c1ccc(N(C)C)cc1
[reply] < 1%

[ask] Item: CCCN(CCC)c1ccc(C(=O)NCCn2c(C)cc3ccccc32)cc1
[reply] 30%

[ask] Cool, now Cc1[nH]c2ccccc2c1CCNC(=O)c1ccc(N(C)C)cc1
[reply] < 1%

Cited source for all entries: ChEMBL document CHEMBL3286257
